Origin of measurements: the NIST ThermoML archive (doi:10.1016/j.jct.2018.03.009)

# setup.conditions: 283.15 K; 101.33 kPa; Liquid; Pycnometric method
Listing: mass density of selected compounds
assay.endpoint: mass density (kg/m3)

[
  {
    "compound": "CCOCCOCCOCC",
    "result.value": 916.3
  },
  {
    "compound": "COCCOC(C)=O [2-methoxyethyl ethanoate]",
    "result.value": 1016.8
  },
  {
    "compound": "COC(C)CCOC(C)=O (stereo unspecified) [3-methoxybutyl acetate]",
    "result.value": 965.3
  },
  {
    "compound": "CCOCCOCCOC(C)=O [2-(2-ethoxyethoxy)ethyl acetate]",
    "result.value": 1020
  },
  {
    "compound": "COCC(C)OC(C)=O (stereo unspecified) [1-methoxy-2-propyl acetate]",
    "result.value": 978.2
  },
  {
    "compound": "CCCCOCCOC(C)=O [2-butoxyethyl acetate]",
    "result.value": 950.4
  }
]

====

Listing: mass density of selected compounds
# setup.conditions: 273.15 K; 101.33 kPa; Liquid; Pycnometric method
assay.endpoint: mass density (kg/m3)

[
  {
    "compound": "COCCOC(C)=O [2-methoxyethyl ethanoate]",
    "display.unit": "kg/m3",
    "result.value": 1027.8
  },
  {
    "compound": "COCC(C)OC(C)=O (stereo unspecified) [1-methoxy-2-propyl acetate]",
    "display.unit": "kg/m3",
    "result.value": 989.2
  },
  {
    "compound": "CCOCCOCCOCC",
    "display.unit": "kg/m3",
    "result.value": 926.4
  },
  {
    "compound": "CCOCCOCCOC(C)=O [2-(2-ethoxyethoxy)ethyl acetate]",
    "display.unit": "kg/m3",
    "result.value": 1030
  },
  {
    "compound": "COC(C)CCOC(C)=O (stereo unspecified) [3-methoxybutyl acetate]",
    "display.unit": "kg/m3",
    "result.value": 975.3
  },
  {
    "compound": "CCCCOCCOC(C)=O [2-butoxyethyl acetate]",
    "display.unit": "kg/m3",
    "result.value": 960.4
  }
]
